From: ChEMBL document CHEMBL1156829

# Test system: Plasmodium falciparum
# experimental_details: NOVARTIS: Inhibition of Plasmodium falciparum 3D7 (drug-susceptible) proliferation in erythrocyte-based infection assay
# Format: functional, organism-based
# condition_summary: Plasmodium falciparum, 3D7
measurement_name: pEC50
Please treat pEC50 as minus the base-10 logarithm of the molar concentration.

Can you look up the measured pEC50 of COc1cc(OC)c(N(C)C(=O)c2cc3c(s2)-c2ccccc2S(=O)(=O)C3)cc1Cl for me? 6.95

And the next one, O=C1C2C(C(=O)N1c1ccccc1F)C1(c3ccccc3)C(=O)C2(c2ccccc2)C(c2ccccc2)=C1c1ccccc1 (stereo not given) ? 6.09

And the next one, Cc1ccc(CN2CCc3nc(N4CCCCC4)sc3C2)s1 ? 7.85

###

Exercise: state measured CC50 for each of the molecules provided.
# experimental_details: NOVARTIS: Cytotoxicity against human hepatocellular carcinoma cell line (Huh7)
# Type: toxicity, cell-based, Huh-7
# condition_summary: Huh7 cells (hepatocellular carcinoma cell line)

Can you look up the measured CC50 of COc1cc(NC(C)CCCN(Cc2ccc(Cl)cc2)C(=O)Nc2cccc(C(F)(F)F)c2)c2ncccc2c1 (stereo not drawn) for me? > 4.44 µM

And the next one, O=c1c2ccccc2[nH]c2ccc(F)cc12 ? > 100 µM

And the next one, COc1ccccc1N1CCN(Cc2cc(C)c(C)cc2O)CC1 ? 58 µM

And the next one, N=C(NN=Cc1cccc([N+](=O)[O-])c1)SC1CC(=O)N(c2cc(Cl)ccc2Cl)C1=O (stereo not drawn) ? > 10 µM

And the next one, Cc1ccc(N=C2NC(=O)/C(=C\c3cc(C)n(-c4cccc([N+](=O)[O-])c4)c3C)S2)cc1 ? > 10 µM

And the next one, COc1ccc(-c2ccc(C=NNC(=O)CNC(=O)c3ccc4c(c3)OCO4)o2)cc1Cl ? > 10 µM

And the next one, COc1cc(CNCCCN(C)C)ccc1OCc1ccc(F)cc1Cl ? 4.16 µM

And the next one, O=[N+]([O-])c1ccc(-c2csc(CO)n2)cc1 ? > 100 µM

And the next one, COc1cc(OC)c(NC(=O)C2c3ccccc3C(=O)N(C)C2c2cccs2)cc1Cl (stereo not drawn) ? > 100 µM

And the next one, O=C(c1ccc2nc(N3CCCCC3)sc2c1)N1CCN(Cc2ccc3c(c2)OCO3)CC1 ? > 100 µM

And the next one, CCOc1ccc(C2C(=O)N(C3CCCCC3)CC(=O)N2Cc2ccc(F)cc2)cc1OC (stereo not drawn) ? > 100 µM

And the next one, COCCN(C(C)C(=O)NC(CN1CCCC1)c1ccccc1)S(=O)(=O)c1c(C)noc1C (stereo not drawn) ? > 11.9 µM

And the next one, COc1ccccc1CNC(=O)C1c2ccccc2C(=O)N2CCc3ccccc3C12 (stereo not drawn) ? > 100 µM

And the next one, CC[n+]1c(C)cc2c(sc3ccccc32)c1C ? > 100 µM

And the next one, CCCCc1ccc(C(=O)N(CC(=O)Nc2cc(C(C)(C)C)nn2-c2ccc(Cl)cc2)C(C)C)cc1 ? > 10 µM

And the next one, Cc1nn(-c2cc(N3CCOCC3)ccc2[N+](=O)[O-])c(=O)c2ccccc12 ? > 10 µM

And the next one, COc1ccc(/C=C2\N=C(c3ccc(Cl)cc3)N(c3cc(Cl)ccc3C)C2=O)cc1OC ? > 10 µM

And the next one, COc1ccccc1-n1c(S)nnc1-c1ccccc1O ? > 10 µM

And the next one, CC(C)CN1C(=O)N(CCCc2cccnc2)C(=O)C12CCN(C1CCOCC1)CC2 ? > 100 µM

And the next one, COc1ccc(C2CC(=O)C3=C(C2)NC(C)=C(C(=O)OC2CCCCC2)C3c2ccc(F)cc2)cc1OC (stereo not drawn) ? 15.2 µM

And the next one, CN(CC(=O)NC(C)(C)C)S(=O)(=O)c1ccccc1 ? > 10 µM

And the next one, Oc1ccccc1CN1CCN(C(c2ccccc2)c2ccccc2)CC1 ? 8.92 µM

And the next one, O=C1Nc2ccccc2Sc2ccccc21 ? > 100 µM

And the next one, Nc1c(C(=O)Nc2ccc(Br)cc2)sc2nc3c(c(-c4cccs4)c12)CCC3 ? > 100 µM

And the next one, O=C(O)CCCNC(=O)C(O)(c1ccccc1)c1ccccc1 ? > 100 µM

And the next one, CC(Oc1cccc(Cl)c1)C(=O)N1CCc2ccccc21 (stereo not drawn) ? > 100 µM

And the next one, Cc1nc(N2CCN(c3ccccn3)CC2)c2c(C)c(C(=O)Nc3c(F)cccc3F)sc2n1 ? > 100 µM

And the next one, C=CCc1cc(C=c2sc3n(c2=O)C(c2ccccc2)C(C(=O)OCC)=C(C)N=3)cc(OC)c1O (stereo not drawn) ? > 100 µM

And the next one, O=C(Nc1cnc2ccccc2c1)c1cccc(-n2cnnn2)c1 ? > 10 µM

And the next one, CC(C)(C)c1ccc2[nH]c3c(c2c1)CCCC3=NO ? 20.9 µM

And the next one, COc1ccc(Cl)cc1NC(=S)NNC(=O)c1cccnc1 ? > 100 µM

And the next one, Cc1cc(S(=O)(=O)N2CCN(Cc3ccccc3)CC2)ccc1-n1cnnn1 ? > 10 µM

And the next one, Cc1cccc(Nc2nc3nonc3[nH]c2=NN=Cc2cccs2)c1C ? 23.3 µM

And the next one, O=C(NC(CN1CCCC1)c1ccccc1)C1CCN(S(=O)(=O)c2ccc(Cl)cc2)CC1 (stereo not drawn) ? 36.8 µM

And the next one, CCOc1cc(C2CC(=O)NC3=C2C(=O)CC(c2ccc(OC)c(OC)c2)C3)ccc1O (stereo not drawn) ? > 100 µM

And the next one, Cc1ccc(C(=O)CSc2nc(N)c(C#N)c(-c3cccs3)c2C#N)cc1 ? > 100 µM

And the next one, CC(CC(=O)NCCCCNc1ccnc2cc(Cl)ccc12)CC(C)(C)C (stereo not drawn) ? 4.59 µM

And the next one, CC(C)(C)c1nn(-c2ccc(Cl)cc2)c2[nH]c(=O)c(CNCc3ccccc3)cc12 ? > 100 µM

And the next one, Cc1ccc(C(CCNc2ncnc3c2[nH]c2ccccc23)c2ccco2)cc1 (stereo not drawn) ? 19.4 µM

And the next one, CC1=NOC(=O)/C1=C\c1cccs1 ? > 10 µM

And the next one, O=C1CSC2=NCN(c3cccc(Cl)c3)CN12 ? > 100 µM

And the next one, CCn1c(SCC(=O)Nc2cccc(C)c2)nnc1-c1ccccc1 ? > 10 µM

And the next one, CCOC(=O)c1cc(S(=O)(=O)NCc2ccc(F)cc2)n[nH]1 ? > 10 µM
